# procedure-details: Plasma pharmacokinetics of BMS-962212 after IV infusion
# assay-context: human, in vivo, iv, 25 mg h^−1

compound: CN1CCN(c2cccc3c2CCN(C(=O)/C=C/c2c(-n4cnnn4)ccc(Cl)c2F)[C@@H]3C(=O)Nc2ccc(C(=O)O)cc2)C(=O)C1 [BMS‐962212]
AUC(0-inf), ng·h/mL: 2730

----------
# procedure-details: Plasma pharmacokinetics of BMS-962212 after IV infusion
# assay-context: human, in vivo, iv, 1 mg h^−1, t1/2, part B 5-day IV infusion 1 mg h^−1; geometric mean (CV%)
experimental-readout: half-life (h)

record-smiles: CN1CCN(c2cccc3c2CCN(C(=O)/C=C/c2c(-n4cnnn4)ccc(Cl)c2F)[C@@H]3C(=O)Nc2ccc(C(=O)O)cc2)C(=O)C1
result-units: h
assay-value: 6.25

----------
# procedure-details: Plasma pharmacokinetics of BMS-962212 after IV infusion
# assay-context: human, in vivo, iv, 3 mg h^−1, t1/2, part B 5-day IV infusion 3 mg h^−1; geometric mean (CV%)
experimental-readout: half-life (h)

record-smiles: CN1CCN(c2cccc3c2CCN(C(=O)/C=C/c2c(-n4cnnn4)ccc(Cl)c2F)[C@@H]3C(=O)Nc2ccc(C(=O)O)cc2)C(=O)C1
assay-value: 6.22

----------
# procedure-details: Plasma pharmacokinetics of BMS-962212 after IV infusion
# assay-context: human, in vivo, iv, 1.5 mg h^−1, Vz, part A 2-h IV infusion 1.5 mg h^−1; geometric mean (CV%)
experimental-readout: Vd (L)

record-smiles: CN1CCN(c2cccc3c2CCN(C(=O)/C=C/c2c(-n4cnnn4)ccc(Cl)c2F)[C@@H]3C(=O)Nc2ccc(C(=O)O)cc2)C(=O)C1
assay-value: 72.6

----------
# procedure-details: Plasma pharmacokinetics of BMS-962212 after IV infusion
# assay-context: human, in vivo, iv, 1.5 mg h^−1, t1/2, part A 2-h IV infusion 1.5 mg h^−1; geometric mean (CV%)
experimental-readout: half-life (h)

compound: CN1CCN(c2cccc3c2CCN(C(=O)/C=C/c2c(-n4cnnn4)ccc(Cl)c2F)[C@@H]3C(=O)Nc2ccc(C(=O)O)cc2)C(=O)C1 [BMS‐962212]
result-units: h
assay-value: 2.04

----------
# procedure-details: Plasma pharmacokinetics of BMS-962212 after IV infusion
# assay-context: human, in vivo, iv, 10 mg h^−1
experimental-readout: Tmax (h)

compound: CN1CCN(c2cccc3c2CCN(C(=O)/C=C/c2c(-n4cnnn4)ccc(Cl)c2F)[C@@H]3C(=O)Nc2ccc(C(=O)O)cc2)C(=O)C1 [BMS‐962212]
result-units: h
assay-value: 2

----------
# procedure-details: Plasma pharmacokinetics of BMS-962212 after IV infusion
# assay-context: human, in vivo, iv, 10 mg h^−1
experimental-readout: Cmax (ng/mL)

record-smiles: CN1CCN(c2cccc3c2CCN(C(=O)/C=C/c2c(-n4cnnn4)ccc(Cl)c2F)[C@@H]3C(=O)Nc2ccc(C(=O)O)cc2)C(=O)C1
assay-value: 505

----------
# procedure-details: Plasma pharmacokinetics of BMS-962212 after IV infusion
# assay-context: human, in vivo, iv, 4 mg h^−1
experimental-readout: Tmax (h)

compound: CN1CCN(c2cccc3c2CCN(C(=O)/C=C/c2c(-n4cnnn4)ccc(Cl)c2F)[C@@H]3C(=O)Nc2ccc(C(=O)O)cc2)C(=O)C1 [BMS‐962212]
assay-value: 2

----------
# procedure-details: Plasma pharmacokinetics of BMS-962212 after IV infusion
# assay-context: human, in vivo, 20 mg, t 1/2, part B 20 mg h^−1; Japanese ethnicity (n = 4); mean (CV%)
experimental-readout: half-life

record-smiles: CN1CCN(c2cccc3c2CCN(C(=O)/C=C/c2c(-n4cnnn4)ccc(Cl)c2F)[C@@H]3C(=O)Nc2ccc(C(=O)O)cc2)C(=O)C1
experimental-readout: half-life
assay-value: 8.28 h

----------
# procedure-details: Plasma pharmacokinetics of BMS-962212 after IV infusion
# assay-context: human, in vivo, iv, 1.5 mg h^−1

compound: CN1CCN(c2cccc3c2CCN(C(=O)/C=C/c2c(-n4cnnn4)ccc(Cl)c2F)[C@@H]3C(=O)Nc2ccc(C(=O)O)cc2)C(=O)C1 [BMS‐962212]
result-units: h
Tmax: 1.5

----------
# procedure-details: Plasma pharmacokinetics of BMS-962212 after IV infusion
# assay-context: human, in vivo, iv, 20 mg h^−1

compound: CN1CCN(c2cccc3c2CCN(C(=O)/C=C/c2c(-n4cnnn4)ccc(Cl)c2F)[C@@H]3C(=O)Nc2ccc(C(=O)O)cc2)C(=O)C1 [BMS‐962212]
AUC(0-t) / µg·h/mL: 124

----------
# procedure-details: Plasma pharmacokinetics of BMS-962212 after IV infusion
# assay-context: human, in vivo, iv, 25 mg h^−1, Vz, part A 2-h IV infusion 25 mg h^−1; geometric mean (CV%)

record-smiles: CN1CCN(c2cccc3c2CCN(C(=O)/C=C/c2c(-n4cnnn4)ccc(Cl)c2F)[C@@H]3C(=O)Nc2ccc(C(=O)O)cc2)C(=O)C1
Vd / L: 129

----------
# procedure-details: Plasma pharmacokinetics of BMS-962212 after IV infusion
# assay-context: human, in vivo, iv, 25 mg h^−1, t1/2, part A 2-h IV infusion 25 mg h^−1; geometric mean (CV%)
experimental-readout: half-life (h)

record-smiles: CN1CCN(c2cccc3c2CCN(C(=O)/C=C/c2c(-n4cnnn4)ccc(Cl)c2F)[C@@H]3C(=O)Nc2ccc(C(=O)O)cc2)C(=O)C1
experimental-readout: half-life
result-units: h
assay-value: 4.94

----------
# procedure-details: Plasma pharmacokinetics of BMS-962212 after IV infusion
# assay-context: human, in vivo, iv, 1 mg h^−1, CL, part B 5-day IV infusion 1 mg h^−1; geometric mean (CV%)

record-smiles: CN1CCN(c2cccc3c2CCN(C(=O)/C=C/c2c(-n4cnnn4)ccc(Cl)c2F)[C@@H]3C(=O)Nc2ccc(C(=O)O)cc2)C(=O)C1
clearance (mL/min): 314

----------
# procedure-details: Plasma pharmacokinetics of BMS-962212 after IV infusion
# assay-context: human, in vivo, iv, 1 mg h^−1

molecule: CN1CCN(c2cccc3c2CCN(C(=O)/C=C/c2c(-n4cnnn4)ccc(Cl)c2F)[C@@H]3C(=O)Nc2ccc(C(=O)O)cc2)C(=O)C1 [BMS‐962212]
Tmax [h]: 24

----------
# procedure-details: Plasma pharmacokinetics of BMS-962212 after IV infusion
# assay-context: human, in vivo, iv, 4 mg h^−1
experimental-readout: AUC(0-t) (ng·h/mL)

record-smiles: CN1CCN(c2cccc3c2CCN(C(=O)/C=C/c2c(-n4cnnn4)ccc(Cl)c2F)[C@@H]3C(=O)Nc2ccc(C(=O)O)cc2)C(=O)C1
assay-value: 233

----------
# procedure-details: Plasma pharmacokinetics of BMS-962212 after IV infusion
# assay-context: human, in vivo, iv, CL, range across panels, part B 5-day IV infusion
experimental-readout: clearance

record-smiles: CN1CCN(c2cccc3c2CCN(C(=O)/C=C/c2c(-n4cnnn4)ccc(Cl)c2F)[C@@H]3C(=O)Nc2ccc(C(=O)O)cc2)C(=O)C1
assay-value: 280 to 324 mL/min

----------
# procedure-details: Plasma pharmacokinetics of BMS-962212 after IV infusion
# assay-context: human, in vivo, iv, 1 mg h^−1

record-smiles: CN1CCN(c2cccc3c2CCN(C(=O)/C=C/c2c(-n4cnnn4)ccc(Cl)c2F)[C@@H]3C(=O)Nc2ccc(C(=O)O)cc2)C(=O)C1
AUC(0-t), ng·h/mL: 6300

----------
# procedure-details: Plasma pharmacokinetics of BMS-962212 after IV infusion
# assay-context: human, in vivo, t1/2 range over all dose groups, part B; non-Japanese subjects
experimental-readout: half-life

record-smiles: CN1CCN(c2cccc3c2CCN(C(=O)/C=C/c2c(-n4cnnn4)ccc(Cl)c2F)[C@@H]3C(=O)Nc2ccc(C(=O)O)cc2)C(=O)C1
experimental-readout: half-life
assay-value: 6.05 to 8.32 h

----------
# procedure-details: Plasma pharmacokinetics of BMS-962212 after IV infusion
# assay-context: human, in vivo, iv, 1.5 mg h^−1
experimental-readout: Cmax (ng/mL)

record-smiles: CN1CCN(c2cccc3c2CCN(C(=O)/C=C/c2c(-n4cnnn4)ccc(Cl)c2F)[C@@H]3C(=O)Nc2ccc(C(=O)O)cc2)C(=O)C1
experimental-readout: Cmax
assay-value: 81.9

----------
# procedure-details: Plasma pharmacokinetics of BMS-962212 after IV infusion
# assay-context: human, in vivo, iv, 9 mg h^−1, Vz, part B 5-day IV infusion 9 mg h^−1; geometric mean (CV%)

molecule: CN1CCN(c2cccc3c2CCN(C(=O)/C=C/c2c(-n4cnnn4)ccc(Cl)c2F)[C@@H]3C(=O)Nc2ccc(C(=O)O)cc2)C(=O)C1 [BMS‐962212]
Vd (L): 216

----------
# procedure-details: Plasma pharmacokinetics of BMS-962212 after IV infusion
# assay-context: human, in vivo, t1/2 range over all dose groups, part B; Japanese subjects

compound: CN1CCN(c2cccc3c2CCN(C(=O)/C=C/c2c(-n4cnnn4)ccc(Cl)c2F)[C@@H]3C(=O)Nc2ccc(C(=O)O)cc2)C(=O)C1 [BMS‐962212]
half-life: 6.42 to 8.28 h
